Data provenance is ChEMBL document CHEMBL1201861.

system: NCI-H1882; assay: cells; assay type: functional, cell-based; details: Homo sapiens;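 also: growth inhibition of the cell line, determined with a viability assay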
Description: SANGER: Inhibition of human NCI-H1882 cell growth in a cell viability assay.
pIC50: −log10 of the molar value.
Field: pIC50. Provide a value for each of the molecules that follow.

Answered cases to consult:
C/C=C(/C)C(=O)O[C@H]1C(C)=C2[C@H]([C@@H]1OC(=O)CCCCCCC)[C@@](C)(OC(C)=O)C[C@H](OC(=O)CCC)[C@@]1(O)[C@H]2OC(=O)[C@@]1(C)O [THAPSIGARGIN]    < 6.29
CC(O)(CS(=O)(=O)c1ccc(F)cc1)C(=O)Nc1ccc(C#N)c(C(F)(F)F)c1 (stereo not drawn) [BICALUTAMIDE]    < 5.99

Please turn your attention to the following entry.
Data request: # lookup: pIC50 of Cc1ccc(NC(=O)c2cccc(C(C)(C)C#N)c2)cc1Nc1ccc2ncn(C)c(=O)c2c1
Data returned: < 5.40

* * *

Please go through the items and note down their pIC50.
test system: Ca-Ski; assay: cells; assay type: functional, cell-based; settings: Homo sapiens;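 also: cell viability assay measuring inhibition of Ca-Ski cell growth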
Description: SANGER: Inhibition of human Ca-Ski cell growth in a cell viability assay.
pIC50: −log10 of the molar value.

Examples with answers:
O=c1cc(N2CCOCC2)oc2c(-c3cccc4c3sc3ccccc34)cccc12    < 5.70
N#C/C(=C1/Nc2ccccc2S1)c1ccnc(NCCc2cccnc2)n1    < 5.10

Now for another entry.
Data request: // lookup pIC50 for O=c1[nH]c2ccccc2n1C1CCN(Cc2ccc(-c3nc4cc5[nH]cnc5cc4nc3-c3ccccc3)cc2)CC1
Data returned: < 5.59

* * *

What IC50 was measured for each of the following?
system: DMS-273; test: cells; format: functional, cell-based; details: Homo sapiens
Description: SANGER: Inhibition of human DMS-273 cell growth in a cell viability assay.

Cn1cc(/C=C2\C(=O)Nc3cccnc32)c2ccccc21    > 2000 nM
O=c1cc(N2CCOCC2)oc2c(-c3cccc4c3sc3ccccc34)cccc12    > 2000 nM

Data request: Query (compound): C[C@]1(c2nc3c(C(N)=O)cccc3[nH]2)CCCN1 [VELIPARIB] ; field requested: IC50
Data returned: > 5000 nM

* * *

system: OCUB-M; test: cells; format: functional, cell-based; conditions: Homo sapiens;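 also: growth inhibition of the cancer cell line, read out through a cell viability assay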
Description: SANGER: Inhibition of human OCUB-M cell growth in a cell viability assay.
pIC50: −log10 of the molar value.
Give measured pIC50 for each item. Keep answers brief.

Here are 2 molecules together with their reported answers.
CC[C@@]1(O)C(=O)OCc2c1cc1n(c2=O)Cc2cc3ccccc3nc2-1    7.42
CCNc1cc(N[C@H]2CC[C@@H](O)CC2)nc(Nc2ccc3c(ccn3Cc3ccccc3)c2)n1    < 5.29

Data request: Reported pIC50, molecule C[C@]1(c2nc3c(C(N)=O)cccc3[nH]2)CCCN1 : ____
Data returned: < 5.30

* * *

system: IGROV-1; test: cells; format: functional, cell-based; settings: Homo sapiens;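 also: reduction of IGROV-1 cell growth, read out with a viability assay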
Description: SANGER: Inhibition of human IGROV-1 cell growth in a cell viability assay.
pIC50: −log10 of the molar value.
Hi there, I'd appreciate the recorded pIC50 for every entry that follows.

C/C=C(/C)C(=O)O[C@H]1C(C)=C2[C@H]([C@@H]1OC(=O)CCCCCCC)[C@@](C)(OC(C)=O)C[C@H](OC(=O)CCC)[C@@]1(O)[C@H]2OC(=O)[C@@]1(C)O    > 8.70
CC(O)(CS(=O)(=O)c1ccc(F)cc1)C(=O)Nc1ccc(C#N)c(C(F)(F)F)c1 (stereo not given) [BICALUTAMIDE]    < 5.99
Cn1cc(/C=C2\C(=O)Nc3cccnc32)c2ccccc21    < 5.70
CC(=O)c1c(C)c2cnc(Nc3ccc(N4CCNCC4)cn3)nc2n(C2CCCC2)c1=O    < 5.40

Switching to the query record.
Data request: Any idea what pIC50 came out for CCCS(=O)(=O)Nc1ccc(F)c(C(=O)c2c[nH]c3ncc(Cl)cc23)c1F on IGROV-1?
Data returned: < 5.00
